- experimental target: T1, Human TIM-3 Human Fc tagged protein (human, fluorescently labeled with HiLyte Fluor 555 (sites not given))
- T1 construct: Bought construct; also called TIM-3 protein tagged with human Fc; ACROBiosystems catalog no: TM3-H5258
- procedure details: capture slide probed with labeled TIM-3-Fc;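 also: IgG from single CD138-enriched plasma cells, isolated from lymphocytes, immobilized on a derivatized glass slide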

[
  {
    "binder": "SCT-Fa173 (antibody, V domains shown, murine IgG) VH: QVQLQQSGAELMRPGASVTLSCKASGYTFPDYEMYWVKQTPVHGLEWIGVIDPETGGTAYNQKFEVKAILTADKSSNTAYMELRSLTSEDSAVYYCTRWAYWGQGTLVTVSA VL: QIVLTQSPAIMSASLGERVTMTCTASSSVSSSYLHWYQQKPGSSPKLWVYSTSNLASGVPGRFSGSGSGTSYSLTISSMEAEDAATYYCHHYHRSPPTFGGGTKLEIK",
    "binding result": "binds"
  },
  {
    "binder": "SCT-Fa026 (antibody, V domains shown, murine IgG) VH: EVQLQQSGAELVKPGASVKLSCTASGFNIKDFYMHWVHQRTEKGLEWIGRIDPEDGKTKYAPKFQGKATITADTSSNTAYLQLSSLTSEDTAVYYCARSNPYFFDYWGQGTTLTVSS VL: DIQMNQSPSSLSASLGDTITITCHASQTINVWLSWYQQKPGNIPKLLIYKASNLHTGVPSRFSGSGSGTGFTLNISSLQPEDIATYYCHQGQSYPYTFGGGTKLEIK",
    "binding result": "binds"
  },
  {
    "binder": "SCT-Fa120 (antibody, V domains shown, murine IgG) VH: QVQLQQPGAELVKPGASVKVSCKASGYSFISYWMYWVKQRPGQGLEWIGRIHPSDSDTNYNQKYKGKATLTVDRSSSTAYMQLSSLTSEDSAVYYCTISHYSGSSPETYWGQGTTLTVSS VL: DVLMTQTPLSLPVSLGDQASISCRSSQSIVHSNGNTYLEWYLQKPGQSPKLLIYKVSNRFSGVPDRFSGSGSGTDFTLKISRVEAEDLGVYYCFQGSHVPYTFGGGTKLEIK",
    "binding result": "binds"
  }
]

Data origin, for the record: patent US20230279105A1
